Target: T1, His-tagged soluble human ADAM9 (shADAM9-His) (human, UniProt Q13443 206-697)
T1 construct: Contains an extracellular portion of human ADAM9; also called huADAM9-His; His peptide-tagged soluble huADAM9
T1 sequence: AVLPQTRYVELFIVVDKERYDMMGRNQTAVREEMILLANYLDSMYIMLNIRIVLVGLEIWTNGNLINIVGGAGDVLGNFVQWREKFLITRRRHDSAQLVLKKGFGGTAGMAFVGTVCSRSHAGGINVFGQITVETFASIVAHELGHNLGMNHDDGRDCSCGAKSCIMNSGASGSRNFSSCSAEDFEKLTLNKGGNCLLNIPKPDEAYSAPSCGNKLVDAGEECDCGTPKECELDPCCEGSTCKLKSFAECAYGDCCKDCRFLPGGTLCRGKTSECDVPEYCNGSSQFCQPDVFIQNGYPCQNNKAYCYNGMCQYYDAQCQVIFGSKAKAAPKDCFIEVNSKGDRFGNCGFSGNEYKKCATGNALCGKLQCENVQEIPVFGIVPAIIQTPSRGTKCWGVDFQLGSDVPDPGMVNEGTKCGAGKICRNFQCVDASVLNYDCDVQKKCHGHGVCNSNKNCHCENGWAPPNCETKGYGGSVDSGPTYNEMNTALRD
Experiment: SPR (BIACORE), antibody captured, huADAM9-His in flow
TEST_READOUT: pKd
Hey, just a heads up that pKd is the negative log base 10 of the concentration in molar.

Guide cases for pKd, answers given:
BINDER	OBSERVED_RESULT
hMAB-A (2C.2) (antibody, human IgG1, kappa, V domains shown, IgG1 kappa; also called MAB-A VH(2C); MAB-A VH(2C.2)) VH: EVQLVESGGGLVKPGGSLRLSCAASGFTFSSYWMHWVRQAPGKGLEWVGEIIPIFGHTNYNEKFKSRFTISLDNSKNTLYLQMGSLRAEDTAVYYCARGGYYYYPRFGWLDYWGQGTTVTVSS VL: DIVMTQSPDSLAVSLGERATISCKASQSVDYSGDSYMNWYQQKPGQPPKLLIYAASDLESGIPARFSGSGSGTDFTLTISSLEPEDFATYYCQQSHEDPFTFGQGTKLEIKR	8.85
hMAB-A (2D.2) (antibody, V domains shown, also called MAB-A VH(2D); MAB-A VH(2D.2)) VH: EVQLVESGGGLVKPGGSLRLSCAASGFTFSSYWMHWVRQAPGKGLEWVGEIIPIFGHTNYNEKFKSRFTISLDNSKNTLYLQMGSLRAEDTAVYYCARGGYYYYTGKGVLDYWGQGTTVTVSS VL: DIVMTQSPDSLAVSLGERATISCKASQSVDYSGDSYMNWYQQKPGQPPKLLIYAASDLESGIPARFSGSGSGTDFTLTISSLEPEDFATYYCQQSHEDPFTFGQGTKLEIK	9.10
hMAB-A (2.2) (antibody, human IgG1, kappa, V domains shown, IgG1 kappa; also called huMAB-A(2.2); parental hMAB-A (2.2)) VH: EVQLVESGGGLVKPGGSLRLSCAASGFTFSSYWMHWVRQAPGKGLEWVGEIIPIFGHTNYNEKFKSRFTISLDNSKNTLYLQMGSLRAEDTAVYYCARGGYYYYGSRDYFDYWGQGTTVTVSS VL: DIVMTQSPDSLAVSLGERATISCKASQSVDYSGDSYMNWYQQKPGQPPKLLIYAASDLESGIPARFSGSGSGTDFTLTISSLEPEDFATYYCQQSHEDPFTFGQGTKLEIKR	9.22

Proceed to the following item.
Looking up hMAB-A (2B.2) (antibody, V domains shown, also called MAB-A VH(2B); MAB-A VH(2B.2)) VH: EVQLVESGGGLVKPGGSLRLSCAASGFTFSSYWMHWVRQAPGKGLEWVGEIIPIFGHTNYNEKFKSRFTISLDNSKNTLYLQMGSLRAEDTAVYYCARGGYYYYIGKGVLDYWGQGTTVTVSS VL: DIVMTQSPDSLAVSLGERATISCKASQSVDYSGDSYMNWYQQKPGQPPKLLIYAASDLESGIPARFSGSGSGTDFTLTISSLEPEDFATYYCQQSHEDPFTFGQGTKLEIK , I found its pKd recorded as 9.22

All figures here come from patent US20210388102A1.
